experiment: in vivo; settings: Taconic nude, mouse, in vivo, iv, % ID/g Stomach

Compound	tissue uptake at 3 h (%ID/g)
NC(=O)[C@@H](CCCCNC(=O)CNC(=O)CCC(=O)NCCc1c[nH]cn1)NC(=O)[C@@H](Cc1ccc(O)cc1)NC(=O)[C@@H](CCCCNC(=O)CNC(=O)CCC(=O)NCCc1c[nH]cn1)NC(=O)Cc1ccc(CN2CCN(CC(=O)O)CCN(CC(=O)O)CC2)cc1 [Al^18F(IMP485)]	0.025

* * *

assay: in vivo; conditions: nude (Taconic), mouse, in vivo, iv, total radioactivity, % ID/org Liver

Compound	Units Symbol	tissue uptake dose at 3 h
NC(=O)[C@@H](CCCCNC(=O)CNC(=O)CCC(=O)NCCc1c[nH]cn1)NC(=O)[C@@H](Cc1ccc(O)cc1)NC(=O)[C@@H](CCCCNC(=O)CNC(=O)CCC(=O)NCCc1c[nH]cn1)NC(=O)Cc1ccc(CN2CCN(CC(=O)O)CCN(CC(=O)O)CC2)cc1 [Al^18F(IMP485)]	%ID	0.178
